target_or_test_system: Protein farnesyltransferase (Rattus norvegicus, UniProt Q02293+Q04631)
test_details: Inhibition of FTase in competitive manner with respect to FPP (farnesyl diphosphate) at 6.0 uM FPP and 0.36 uM Ras peptide.
Format: protein-complex assay
endpoint_label: IC50 (nM)
Give just the number in nM; leave the unit off.

Entry C[C@@H]([C@H](C/C=C/c1nc2ccccc2o1)c1ccc2c(c1)OCO2)N(Cc1ccc2ccccc2c1)C(=O)[C@@H]1OC(C(=O)O)(C(=O)O)O[C@@H]1C(=O)O , tested on Protein farnesyltransferase (Rattus norvegicus, UniProt Q02293+Q04631), has a reported IC50 of 45

* * *

target_or_test_system: Protein farnesyltransferase (Rattus norvegicus, UniProt Q02293+Q04631)
test_details: Inhibition of Farnesyltransferase in competitive manner with respect to FPP (farnesyl diphosphate) at 0.6 uM FPP and 3.6 uM Ras peptide.
Format: protein-complex assay
endpoint_label: IC50 (nM)
Give just the number in nM; leave the unit off.

Entry C[C@@H]([C@H](C/C=C/c1nc2ccccc2o1)c1ccc2c(c1)OCO2)N(Cc1ccc2ccccc2c1)C(=O)[C@@H]1OC(C(=O)O)(C(=O)O)O[C@@H]1C(=O)O , tested on Protein farnesyltransferase (Rattus norvegicus, UniProt Q02293+Q04631), has a reported IC50 of 7.2
